Please respond with reported Kd for every item in the list.
# STUDY_TARGET: T1, PUF4 RNA-binding domain (Saccharomyces cerevisiae, UniProt P25339 537-888)
# T1 sequence: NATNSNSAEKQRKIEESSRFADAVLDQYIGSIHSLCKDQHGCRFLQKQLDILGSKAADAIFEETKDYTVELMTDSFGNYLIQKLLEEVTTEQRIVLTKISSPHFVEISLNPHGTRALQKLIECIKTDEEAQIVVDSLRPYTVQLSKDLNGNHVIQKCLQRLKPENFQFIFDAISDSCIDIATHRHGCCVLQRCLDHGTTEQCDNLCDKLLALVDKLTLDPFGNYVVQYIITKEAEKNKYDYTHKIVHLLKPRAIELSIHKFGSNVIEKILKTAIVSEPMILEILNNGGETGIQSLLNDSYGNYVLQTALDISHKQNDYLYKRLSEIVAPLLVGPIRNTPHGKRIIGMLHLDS
# EXPERIMENTAL_DETAILS: Mg; RNA-MaP; 20 mM Na-HEPES pH 7.4, 30 mM KOAc, 0.75 mM MgCl2, 0.1% Tween-20, 5% glycerol, 0.1 mg/mL BSA, 2 mM DTT; 25 C; 0.0125-409.6 nM protein
# CONDITION_SET: tags: N-His6-TEV cleaved; C-SNAP kept, Cy3B-labelled; label: tethered on chip by stalled RNA polymerase
Answers are plain numbers, in nM.

1. ACAAACGGUAUAUAUAGAACAAAC (ssRNA) [Id_ii_S3_P3E.3_K3.2_C3.2_[C-2G]_[T-1G]_H3.2_A3.1_F3.1_T3.2_[T9G]] = 128

Would you kindly look at the next entry?
Query: Requested read-out: Kd. Entry: Ib_S4_P4E.1_K4.1_C4.1_H4.1_A4.1_[A6C]_[T7A]_F4.1_T4.1 (ssRNA) RNA: UUUGACAACUGAUCGUUCUUUCUUGUAUCAUAUUCUUUCUCGAUCAGUUGUCUUU
Response: 0.977
